These measurements were taken from patent US11819533B2.

# protocol-description: Solubility of CD101 acetate in various media
# Assay type: physicochemical
# test-parameters: 0.9% saline with 2.5% Tween 80, aqueous with cosolvent or surfactant or cyclodextrin; 0.9% Saline (USP) with 2.5% Tween 80 (polysorbate 80); read-out: Solubility
Starred links: 1 amine or outer side, 2 acyl side, 3 side chain; linkers in the order of their positions; H or OH if unused. Positions of bridges follow the written chain, without caps; N, C: chain ends. Non-standard residues stand in square brackets, D forms with d. Residues, ends and D or L forms follow the SMILES beside them. *: point of attachment. Orn(4R-OH,5R-OCH2CH2NMe3+) = C[N+](C)(C)CCO[C@@H](N[*:3])[C@H](O)C[C@H](N[*:1])C(=O)[*:2]; pTerphenylCO(4''-OnC5H11) = CCCCCOc1ccc(-c2ccc(-c3ccc(C(=O)*)cc3)cc2)cc1; hTyr(3S-OH,4S-OH) = N[C@H](C(=O)O)[C@H](O)[C@@H](O)c1ccc(O)cc1; Pro(3S-OH,4S-Me) = C[C@H]1CN[C@H](C(=O)O)[C@H]1O; Hyp = O=C(O)[C@@H]1C[C@@H](O)CN1
recorded-metric: solubility

Field request: solubility | item: CCCCCOc1ccc(-c2ccc(-c3ccc(C(=O)N[C@H]4C[C@@H](O)[C@@H](OCC[N+](C)(C)C)NC(=O)[C@@H]5[C@@H](O)[C@@H](C)CN5C(=O)[C@H]([C@@H](C)O)NC(=O)[C@H]([C@H](O)[C@@H](O)c5ccc(O)cc5)NC(=O)[C@@H]5C[C@@H](O)CN5C(=O)[C@H]([C@@H](C)O)NC4=O)cc3)cc2)cc1 [CD101 acetate] ({pTerphenylCO(4''-OnC5H11)}-[Orn(4R-OH,5R-OCH2CH2NMe3+)]T[Hyp][hTyr(3S-OH,4S-OH)]T[Pro(3S-OH,4S-Me)]; lactam 1-C)
> 3500 µg/mL

###

# protocol-description: Solubility of CD101 acetate in various media
# Type: physicochemical
# test-parameters: aqueous with cosolvent or surfactant or cyclodextrin; PBS buffer with 1% Tween 20, pH 7.4; maximum solubility not reached; read-out: Solubility
# Excerpt: Table 1 below provides the solubility of CD101 acetate in different solutions.
Starred links: 1 amine or outer side, 2 acyl side, 3 side chain; linkers in the order of their positions; H or OH if unused. Positions of bridges follow the written chain, without caps; N, C: chain ends. Non-standard residues stand in square brackets, D forms with d. Residues, ends and D or L forms follow the SMILES beside them. *: point of attachment. Orn(4R-OH,5R-OCH2CH2NMe3+) = C[N+](C)(C)CCO[C@@H](N[*:3])[C@H](O)C[C@H](N[*:1])C(=O)[*:2]; pTerphenylCO(4''-OnC5H11) = CCCCCOc1ccc(-c2ccc(-c3ccc(C(=O)*)cc3)cc2)cc1; hTyr(3S-OH,4S-OH) = N[C@H](C(=O)O)[C@H](O)[C@@H](O)c1ccc(O)cc1; Pro(3S-OH,4S-Me) = C[C@H]1CN[C@H](C(=O)O)[C@H]1O; Hyp = O=C(O)[C@@H]1C[C@@H](O)CN1
recorded-metric: solubility

Field request: solubility | item: CCCCCOc1ccc(-c2ccc(-c3ccc(C(=O)N[C@H]4C[C@@H](O)[C@@H](OCC[N+](C)(C)C)NC(=O)[C@@H]5[C@@H](O)[C@@H](C)CN5C(=O)[C@H]([C@@H](C)O)NC(=O)[C@H]([C@H](O)[C@@H](O)c5ccc(O)cc5)NC(=O)[C@@H]5C[C@@H](O)CN5C(=O)[C@H]([C@@H](C)O)NC4=O)cc3)cc2)cc1 [CD101 acetate] ({pTerphenylCO(4''-OnC5H11)}-[Orn(4R-OH,5R-OCH2CH2NMe3+)]T[Hyp][hTyr(3S-OH,4S-OH)]T[Pro(3S-OH,4S-Me)]; lactam 1-C)
> 370 µg/mL

###

# protocol-description: Solubility of CD101 acetate in various media
# Type: physicochemical
# test-parameters: saline or isotonic; 5% D-Mannitol; maximum solubility not reached; read-out: Solubility
Starred links: 1 amine or outer side, 2 acyl side, 3 side chain; linkers in the order of their positions; H or OH if unused. Positions of bridges follow the written chain, without caps; N, C: chain ends. Non-standard residues stand in square brackets, D forms with d. Residues, ends and D or L forms follow the SMILES beside them. *: point of attachment. Orn(4R-OH,5R-OCH2CH2NMe3+) = C[N+](C)(C)CCO[C@@H](N[*:3])[C@H](O)C[C@H](N[*:1])C(=O)[*:2]; pTerphenylCO(4''-OnC5H11) = CCCCCOc1ccc(-c2ccc(-c3ccc(C(=O)*)cc3)cc2)cc1; hTyr(3S-OH,4S-OH) = N[C@H](C(=O)O)[C@H](O)[C@@H](O)c1ccc(O)cc1; Pro(3S-OH,4S-Me) = C[C@H]1CN[C@H](C(=O)O)[C@H]1O; Hyp = O=C(O)[C@@H]1C[C@@H](O)CN1
recorded-metric: solubility

Field request: solubility | item: CCCCCOc1ccc(-c2ccc(-c3ccc(C(=O)N[C@H]4C[C@@H](O)[C@@H](OCC[N+](C)(C)C)NC(=O)[C@@H]5[C@@H](O)[C@@H](C)CN5C(=O)[C@H]([C@@H](C)O)NC(=O)[C@H]([C@H](O)[C@@H](O)c5ccc(O)cc5)NC(=O)[C@@H]5C[C@@H](O)CN5C(=O)[C@H]([C@@H](C)O)NC4=O)cc3)cc2)cc1 [CD101 acetate] ({pTerphenylCO(4''-OnC5H11)}-[Orn(4R-OH,5R-OCH2CH2NMe3+)]T[Hyp][hTyr(3S-OH,4S-OH)]T[Pro(3S-OH,4S-Me)]; lactam 1-C)
> 4000 µg/mL

###

# protocol-description: Solubility of CD101 acetate in various media
# Assay type: physicochemical
# test-parameters: aqueous buffer; 5% Citric Acid; maximum solubility not reached; read-out: Solubility
# From the text: Table 1 below provides the solubility of CD101 acetate in different solutions.
Starred links: 1 amine or outer side, 2 acyl side, 3 side chain; linkers in the order of their positions; H or OH if unused. Positions of bridges follow the written chain, without caps; N, C: chain ends. Non-standard residues stand in square brackets, D forms with d. Residues, ends and D or L forms follow the SMILES beside them. *: point of attachment. Orn(4R-OH,5R-OCH2CH2NMe3+) = C[N+](C)(C)CCO[C@@H](N[*:3])[C@H](O)C[C@H](N[*:1])C(=O)[*:2]; pTerphenylCO(4''-OnC5H11) = CCCCCOc1ccc(-c2ccc(-c3ccc(C(=O)*)cc3)cc2)cc1; hTyr(3S-OH,4S-OH) = N[C@H](C(=O)O)[C@H](O)[C@@H](O)c1ccc(O)cc1; Pro(3S-OH,4S-Me) = C[C@H]1CN[C@H](C(=O)O)[C@H]1O; Hyp = O=C(O)[C@@H]1C[C@@H](O)CN1
recorded-metric: solubility

Field request: solubility | item: CCCCCOc1ccc(-c2ccc(-c3ccc(C(=O)N[C@H]4C[C@@H](O)[C@@H](OCC[N+](C)(C)C)NC(=O)[C@@H]5[C@@H](O)[C@@H](C)CN5C(=O)[C@H]([C@@H](C)O)NC(=O)[C@H]([C@H](O)[C@@H](O)c5ccc(O)cc5)NC(=O)[C@@H]5C[C@@H](O)CN5C(=O)[C@H]([C@@H](C)O)NC4=O)cc3)cc2)cc1 [CD101 acetate] ({pTerphenylCO(4''-OnC5H11)}-[Orn(4R-OH,5R-OCH2CH2NMe3+)]T[Hyp][hTyr(3S-OH,4S-OH)]T[Pro(3S-OH,4S-Me)]; lactam 1-C)
> 18.6 mg/mL

###

# protocol-description: Solubility of CD101 acetate in various media
# Assay type: physicochemical
# test-parameters: saline or isotonic; 0.45% Saline (USP); maximum solubility not reached; read-out: Solubility
Starred links: 1 amine or outer side, 2 acyl side, 3 side chain; linkers in the order of their positions; H or OH if unused. Positions of bridges follow the written chain, without caps; N, C: chain ends. Non-standard residues stand in square brackets, D forms with d. Residues, ends and D or L forms follow the SMILES beside them. *: point of attachment. Orn(4R-OH,5R-OCH2CH2NMe3+) = C[N+](C)(C)CCO[C@@H](N[*:3])[C@H](O)C[C@H](N[*:1])C(=O)[*:2]; pTerphenylCO(4''-OnC5H11) = CCCCCOc1ccc(-c2ccc(-c3ccc(C(=O)*)cc3)cc2)cc1; hTyr(3S-OH,4S-OH) = N[C@H](C(=O)O)[C@H](O)[C@@H](O)c1ccc(O)cc1; Pro(3S-OH,4S-Me) = C[C@H]1CN[C@H](C(=O)O)[C@H]1O; Hyp = O=C(O)[C@@H]1C[C@@H](O)CN1
recorded-metric: solubility

Field request: solubility | item: CCCCCOc1ccc(-c2ccc(-c3ccc(C(=O)N[C@H]4C[C@@H](O)[C@@H](OCC[N+](C)(C)C)NC(=O)[C@@H]5[C@@H](O)[C@@H](C)CN5C(=O)[C@H]([C@@H](C)O)NC(=O)[C@H]([C@H](O)[C@@H](O)c5ccc(O)cc5)NC(=O)[C@@H]5C[C@@H](O)CN5C(=O)[C@H]([C@@H](C)O)NC4=O)cc3)cc2)cc1 [CD101 acetate] ({pTerphenylCO(4''-OnC5H11)}-[Orn(4R-OH,5R-OCH2CH2NMe3+)]T[Hyp][hTyr(3S-OH,4S-OH)]T[Pro(3S-OH,4S-Me)]; lactam 1-C)
> 1300 µg/mL
